Assay: chemical genetic growth profiling, strain panel (AID 1159580);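 note: tested at 20 µM; growth read once vehicle control cultures reached saturation at 30 °C; 1 = growth at the plate median or of vehicle wells; lower values mean less growth of the strain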
Conditions: S. cerevisiae deletion strains, growth OD, locus YLL041C, strain sdh2, hits give low values
About 2,000 (36%) of roughly 5,500 compounds were called active. Another 18% or so got no clear call; they are omitted. This is one part of the list.
assay endpoint: normalized growth
Answer with a bare number; do not write a unit.

query: Item "O=C1C[C@@H](c2ccc(O)cc2)Oc2cc(O)cc(O)c21" has what recorded normalized growth?
result: 0.977

query: Fill in the blank: the reported normalized growth of CNC1(C)C2CCC(C2)C1(C)C (configuration not stated) is ____.
result: 0.988

query: normalized growth for CN1CCCC(n2nc(Cc3ccc(Cl)cc3)c3ccccc3c2=O)CC1 (configuration not stated) ?
result: 0.99

query: Please give the measured normalized growth for this compound: "COc1ccc2cc1Oc1ccc(cc1)C[C@H]1c3cc(c(OC)cc3CCN1C)Oc1c(OC)c(OC)cc3c1[C@H](C2)N(C)CC3"
result: 1

query: Fill in: normalized growth of "O=C(Cc1ccccc1)NO" is ___
result: 0.976

query: Param item = CC1(C)C2CC[C@]3(C)C(C(=O)C=C4[C@@H]5C[C@@](C)(C(=O)O)CC[C@]5(C)CC[C@]43C)[C@@]2(C)CC[C@@H]1OC(=O)CCC(=O)O (some centres not stated) ; retrieve measured normalized growth.
result: 0.982

query: What normalized growth value was documented for this compound, NCC1CCCCC1CC(=O)O (configuration not stated) ?
result: 1.02

query: What measured normalized growth goes with CC(=O)O[C@H]1C(=O)[C@@]2(C)C([C@H](OC(=O)c3ccccc3)[C@]3(O)C[C@H](OC(=O)[C@H](O)[C@@H](NC(=O)c4ccccc4)c4ccccc4)C(C)=C1C3(C)C)[C@]1(OC(C)=O)CO[C@@H]1C[C@@H]2O (some centres not stated) ?
result: 0.979

query: Return reported normalized growth; argument: "O=C(/C=C/c1ccccc1)O[C@H]1C[C@@H](O)[C@]2(O)C=CO[C@@H](O[C@@H]3O[C@H](CO)[C@@H](O)[C@H](O)[C@H]3O)[C@H]12"
result: 1.02

query: Look up normalized growth for this compound: "CC(C)=CCc1c(O)cc2oc(C)cc(=O)c2c1O"
result: 0.979

query: Need normalized growth, item CC1(C)C2CC[C@]3(C)C(C(=O)C=C4[C@H]5C[C@@](C)(C(=O)O)CC[C@]5(C)CC[C@]43C)[C@@]2(C)CC[C@@H]1O (some centres not stated)
result: 1.01

query: Quick one: normalized growth for "c1ccc(CN(CC2=NCCN2)c2ccccc2)cc1" ?
result: 1.01

query: // lookup normalized growth for "C[C@@H]1O[C@@H](O[C@H]2[C@@H](Oc3cc(O)c4c(c3)O[C@H](c3ccc(O)cc3)CC4=O)O[C@H](CO)[C@@H](O)[C@@H]2O)[C@H](O)[C@H](O)[C@H]1O"
result: 0.983

query: If you can, please state the reported normalized growth value of "COc1ccc([C@@H]2CC(=O)c3c(O)cc(O)cc3O2)cc1O" .
result: 0.982

query: Give its normalized growth value. Item: CN1C2CC3C[C@H]1C(O3)C2O (some centres not stated)
result: 0.997

query: Entry CC(=O)O[C@H]1C(=O)[C@@]2(C)C([C@H](OC(=O)c3ccccc3)[C@]3(O)C[C@H](O)C(C)=C1C3(C)C)[C@]1(OC(C)=O)CO[C@@H]1C[C@@H]2O (some centres not stated) : reported normalized growth = ?
result: 0.985

query: Name the recorded normalized growth for "COc1ccc2cc1Oc1ccc(cc1)C[C@H]1c3c(cc4c(c3Oc3cc5c(cc3OC)CCN(C)[C@@H]5C2)OCO4)CCN1C" .
result: 0.977

----------
Test: chemical genetic growth profiling, strain panel (AID 1159580);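 note: tested at 20 µM; growth read once vehicle control cultures reached saturation at 30 °C; 1 = growth at the plate median or of vehicle wells; lower values mean less growth of the strain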
Settings: S. cerevisiae deletion strains, growth OD, locus YEL061C, strain CIN8
The whole screen tested about 5,500 compounds, of which about 2,000 (36%) were called active. Inconclusive results (about 18%) are left out. Rule as the data show it: active = normalized growth mostly below about 0.91 (no sharp cut-off); inconclusive = no clear call, values can overlap the other calls; inactive = mostly above about 0.92. The list shows a part of the results.
Hi there, use one of these labels in your reply, thanks! active, inactive

query: Write down the call the test reported for this compound. Item: "C[CH2][Hg][S]c1ccccc1C(=O)O"
result: active

query: Write down the call the test reported for this compound. Item: "O=C(O)c1ccccc1OP(=O)(O)O"
result: inactive

query: Just curious, what result did "O=C(O)c1cnn(-c2ccccc2)c1C(F)(F)F" get here?
result: inactive

query: // param item: "N#Cc1cnn(-c2ccccc2)c1-n1cccc1" ; yields the recorded call
result: inactive

query: Which outcome was assigned to CC(C)CC1C(=O)N2CCC[C@H]2C2(O)O[C@](NC(=O)C3C=C4c5cccc6[nH]c(Br)c(c56)C[C@H]4N(C)C3)(C(C)C)C(=O)N12 (stereo partly specified) in this test?
result: inactive

query: # fetch the recorded call for "O=C(O)C1c2ccccc2Oc2ccccc21" here
result: inactive

----------
Field: normalized growth. Provide a value for each of the molecules that follow.
Assay: chemical genetic growth profiling, strain panel (AID 1159580);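 note: tested at 20 µM; growth read once vehicle control cultures reached saturation at 30 °C; 1 = growth at the plate median or of vehicle wells; lower values mean less growth of the strain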
Conditions: S. cerevisiae deletion strains, growth OD, locus YDR297W, strain sur2, hits give low values
Hit rate of the full screen: of about 5,500 compounds, about 2,000 (36%) were called active. About 18% were inconclusive and are not listed. The list shows a part of the results.

query: # lookup: normalized growth of CC(=O)O[C@H]1C(=O)[C@@]2(C)C([C@H](OC(=O)c3ccccc3)[C@]3(O)C[C@H](OC(=O)[C@H](O)[C@@H](NC(=O)c4ccccc4)c4ccccc4)C(C)=C1C3(C)C)[C@]1(OC(C)=O)CO[C@@H]1C[C@@H]2O (stereo partly specified)
result: 0.996 (inactive)

query: May I ask what normalized growth has been recorded for CC(=O)O[C@]1(C(C)=O)CCC2C3C=C(C)C4=CC(=O)CCC4(C)C3CCC21C (stereo partly specified) ?
result: 0.951 (inactive)

query: # get_value(readout='normalized growth', item= COC(=O)C1=COC(OC2OC(CO)C(O)C(O)C2O)C2C(C)CC(=O)C12O (stereo unspecified) )
result: 0.993 (inactive)

query: Form field: reported normalized growth of "CCCCCCCCCCCCCCCCOP(=O)([O-])OCC[N+](C)(C)C"
result: 0.0626 (active)

query: Need normalized growth, item CC(=O)O[C@]1(C(C)=O)CCC2C3C=C(Cl)C4=CC(=O)CC[C@]4(C)C3CC[C@@]21C (stereo partly specified)
result: 0.957 (inactive)

query: Please give the measured normalized growth for this molecule: "N#Cc1c(Cl)c(Cl)c(Cl)c(C#N)c1Cl"
result: 0.0715 (active)

query: Data request, read-out normalized growth, for "COC(=O)COc1cc(Cl)c(Cl)cc1Cl"
result: 1.02 (inactive)

query: What does the record list as normalized growth for "CCCCCCCC/C=C/CCCCCCCCOP(=O)([O-])OCC[N+](C)(C)C" ?
result: 0.0533 (active)

query: // lookup normalized growth for "COc1ccc(-c2coc3c(O)c(OC)ccc3c2=O)cc1"
result: 0.967 (inactive)

query: Entry "O=C(O)COc1cc(Cl)c(Cl)cc1Cl" has what normalized growth?
result: 1 (inactive)

query: Tell me the measured normalized growth of CC(=O)[C@H]1CCC2C3C[C@H](C)C4=CC(=O)CC[C@]4(C)C3[C@@H](O)C[C@@]21C (stereo partly specified) , please.
result: 0.985 (inactive)

----------
Provide the recorded normalized growth for the entries that follow.
Assay: chemical genetic growth profiling, strain panel (AID 1159580);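 note: tested at 20 µM; growth read once vehicle control cultures reached saturation at 30 °C; 1 = growth at the plate median or of vehicle wells; lower values mean less growth of the strain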
Details: S. cerevisiae deletion strains, growth OD, locus YPL078C, strain atp4, hits give low values
About 2,000 (36%) of roughly 5,500 compounds were called active. About 18% were inconclusive and are not listed. The list shows a part of the results.
Quick one: just the number, no unit, thanks!

query: Which normalized growth reading was recorded for the compound CC(=O)[C@H]1CCC2C3C[C@H](C)C4=CC(=O)CC[C@]4(C)C3[C@@H](O)C[C@@]21C (stereo partly specified) ?
result: 0.96

query: # normalized growth lookup, item "CCCCOc1ccc(C(=O)CCN2CCCCC2)cc1"
result: 0.507

query: What value of normalized growth has been recorded for this entry: CC(=O)O[C@]1(C(C)=O)CCC2C3C=C(Cl)C4=CC(=O)CC[C@]4(C)C3CC[C@@]21C (stereo partly specified)
result: 0.996

query: // lookup normalized growth for "CCCCOc1ccc(OCCCN2CCOCC2)cc1"
result: 0.941

query: Consider the compound "NC(N)=Nc1nc(CSCCC(N)=NS(N)(=O)=O)cs1" and give its measured normalized growth.
result: 0.968

query: Fill blank: measured normalized growth of the compound "OC(CCN1CCCCC1)(c1ccccc1)c1ccccc1" is ____.
result: 1.03

query: I am curious: what normalized growth value has been reported for "COc1ccc(-c2coc3c(OC)c(OC)cc(O)c3c2=O)cc1" ?
result: 0.991

query: I am curious: what normalized growth value has been reported for CC(=O)O[C@]1(C(C)=O)CCC2C3C[C@H](C)C4=CC(=O)CC[C@]4(C)C3CC[C@@]21C (stereo partly specified) ?
result: 0.939

query: Which value of normalized growth has been reported for "COc1ccc(-c2coc3c(O)c(OC)ccc3c2=O)cc1" in the records?
result: 0.836

query: For CN1CCc2cc3c(cc2C1O)OCO3 (stereo unspecified) , what is its reported normalized growth?
result: 1.01

query: Looking for the measured normalized growth of OCC(O)Cc1ccc2c(c1)OCO2 (stereo unspecified) , can you help?
result: 1.02
